ASSAY_TARGET: Peroxisome proliferator-activated receptor alpha (Homo sapiens) (UniProt Q07869)
Sequence (Q07869 whole entry, looked up): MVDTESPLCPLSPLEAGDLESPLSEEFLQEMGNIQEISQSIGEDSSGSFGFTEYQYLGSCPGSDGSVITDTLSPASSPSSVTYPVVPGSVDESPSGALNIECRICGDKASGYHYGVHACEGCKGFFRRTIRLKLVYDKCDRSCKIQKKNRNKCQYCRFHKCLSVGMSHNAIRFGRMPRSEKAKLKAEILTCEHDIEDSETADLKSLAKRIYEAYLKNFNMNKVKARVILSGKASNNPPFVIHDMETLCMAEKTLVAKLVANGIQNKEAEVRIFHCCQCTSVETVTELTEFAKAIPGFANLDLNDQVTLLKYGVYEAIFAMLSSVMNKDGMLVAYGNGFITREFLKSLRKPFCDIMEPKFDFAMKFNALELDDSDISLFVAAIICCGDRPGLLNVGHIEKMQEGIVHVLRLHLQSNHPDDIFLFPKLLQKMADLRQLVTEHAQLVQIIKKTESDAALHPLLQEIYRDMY
TEST_NAME: qHTS assay for small molecule agonists of the peroxisome proliferator-activated receptor alpha (PPARalpha) signaling pathway (AID 651778); also: % of control where 0% means no effect
PARTICULARS: PathHunter PPARalpha complementation, chemiluminescence, 6 h; stronger effect = higher value
ATTRIBUTE_MEASURED: max response (%)
The answer is to be given in %; state only the numeric part.

[ask] Please look up its max response: `CCCCCC[N+](=O)[O-]`
[reply] 6.24

[ask] Please answer likewise for `C/C=C/CC#N`
[reply] -3.98

[ask] Please answer likewise for `c1ccc(Nc2ccc(Nc3ccccc3)cc2)cc1`
[reply] -0.732

[ask] Same question for `CCC/C=N/O` please.
[reply] -3.79

[ask] Also `CCCCCCCCCCCCCl` , if possible.
[reply] -2.89

[ask] `CC(C)OC(=O)Cc1ccccc1` , same question.
[reply] 0.38

[ask] Now try C(CCOCC1CO1)COCC1CO1 (configuration not stated) .
[reply] -0.765

[ask] Repeat with `CCOC(=O)CBr`
[reply] -2.92

[ask] Okay, and `Nc1ccc2ccccc2c1` ?
[reply] -2.41

[ask] Another: Clc1ccc(C(c2ccccc2Cl)C(Cl)(Cl)Cl)cc1 (configuration not stated)
[reply] 3.12

[ask] Entry `O=C(O)CBr` please
[reply] 2.06

[ask] `CCCCC#N` ?
[reply] -3.73

[ask] Same lookup for `[C-]1=CC=CC1.[C-]1=CC=CC1.[Cl-].[Cl-].[Ti+4]` , please.
[reply] 0.688

[ask] Next entry: `Cc1cccc(N)c1C`
[reply] -1.4

[ask] Check `O=[N+]([O-])c1ccc(Cl)c(Cl)c1Cl` too.
[reply] 10.7

[ask] What do we get for `Nc1ccc(-c2ccc(N)cc2)cc1` ?
[reply] -0.279

[ask] Subsequent entry: `O=C(O)C(Br)Br`
[reply] 14.7

[ask] Ok, now `Cc1cnc[nH]1`
[reply] -0.863

[ask] Could you do the same for CC(C)(COCC1CO1)COCC1CO1 (configuration not stated) , please?
[reply] -0.497

[ask] And what about the compound `Clc1cc(Cl)c(Cl)c(Cl)c1` ?
[reply] -0.217

[ask] Next entry: `Nc1cccc(Cl)c1`
[reply] 0.632

[ask] Moving on to the next compound: `Oc1cccc(Cl)c1`
[reply] 16.7

[ask] Try `C=CCO` next.
[reply] -7.9

[ask] Please give the result for `C=CC=O` too.
[reply] -5.14

[ask] How about this compound: `O=C(O)CCl`
[reply] -6.37

[ask] What would you report for `CN=C=O` ?
[reply] 1.15

[ask] Can you handle ClCC(Br)CBr (configuration not stated) next?
[reply] -1.61

[ask] Next: `CN(C)c1ccc(N=Nc2ccccc2)cc1`
[reply] -12.4

[ask] Request: `CCCCCc1cc(O)cc(O)c1`
[reply] -5.69

[ask] What do you get for `COc1ccc(C=O)cc1` ?
[reply] 2.57

[ask] Let us now turn to `C[N+](=O)[O-]`
[reply] -2.13

[ask] `ClCc1ccccc1` , same question.
[reply] 3.28
